# protocolNotes: chemical genetic growth profiling, strain panel (AID 1159580);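 note: tested at 20 µM; growth read once vehicle control cultures reached saturation at 30 °C; 1 = growth at the plate median or of vehicle wells; lower values mean less growth of the strain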
# details: S. cerevisiae deletion strains, growth OD, locus YGR040W, strain KSS1
The whole screen tested about 5,500 compounds, of which about 2,000 (36%) were called active. Another 18% or so got no clear call; they are omitted. Cut-off read from the data, not from the text of the source: active = normalized growth mostly below about 0.91 (no sharp cut-off); inconclusive = no clear call, values can overlap the other calls; inactive = mostly above about 0.92. This is one part of the list.
Response enum: active, inactive

Take a look at these entries with their results.
1. COC(=O)/C=C1/OC(c2ccc(OC)cc2)=CC1=O | active
2. O=C(OCc1ccccc1Br)c1cc([N+](=O)[O-])cc([N+](=O)[O-])c1 | inactive

Exam item: Called result for Clc1cccc(Cl)c1C1CC(c2ccccc2)=Nc2ccccc2S1 (stereo unspecified)
Marked response: inactive

Exam item: `N/C(=N/OC(=O)c1cnn(-c2ccc([N+](=O)[O-])cc2)c1C(F)(F)F)c1ccc(Cl)cc1` , same question.
Marked response: inactive

Exam item: `O=C1/C(=C/c2c[nH]c3ccccc23)CSc2ccccc21` , same question.
Marked response: inactive

---

# protocolNotes: chemical genetic growth profiling, strain panel (AID 1159580)
# details: S. cerevisiae deletion strains, growth OD, locus YPL256C, strain CLN2, hits give low values
The campaign covered roughly 5,500 compounds. About 2,000 (36%) were called active. About 18% were inconclusive and are not listed. This is one part of the list.
Listed below: normalized growth values for each entry.
// print number alone

Solved cases (3 shown):
1) FC(F)(F)Sc1ccc(OCc2n[nH]c(=S)n2-c2ccccc2)cc1 | 0.82
2) NC(=O)c1cc([N+](=O)[O-])cc([N+](=O)[O-])c1 | 0.965
3) Cc1c(C(N)=O)cc([N+](=O)[O-])cc1[N+](=O)[O-] | 1.05

Exam item: Fill blank: measured normalized growth of the molecule `O=C(O/N=C1/CCCc2[nH]c3ccccc3c21)C1CCCCC1` is ____.
Marked response: 0.933

Exam item: `O=C1OC(c2ccccc2)=C/C1=C/c1ccccc1` , same question.
Marked response: 0.793

Exam item: COC1=CC(C)[C@@H]2C[C@H]3OC(=O)C[C@H]4C(C)=C(OC)C(=O)C([C@@]34C)[C@@]2(C)C1=O (stereo not given in full) , same question.
Marked response: 1.01

Exam item: `Cc1ncc(CO)c(CO)c1O` , same question.
Marked response: 0.975

Exam item: `FC(F)(F)Oc1ccc(OCc2n[nH]c(=S)n2-c2ccc(Cl)cc2)cc1` , same question.
Marked response: 1.04

Exam item: `NC(=O)c1ccc([N+](=O)[O-])cc1Cl` , same question.
Marked response: 0.941

Exam item: `NC[C@H]1O[C@H](O[C@H]2[C@H](O)[C@@H](O[C@H]3O[C@H](CO)[C@@H](O)[C@H](N)[C@H]3O)[C@H](N)C[C@@H]2N)[C@H](N)[C@@H](O)[C@@H]1O` , same question.
Marked response: 1.08

---

# protocolNotes: chemical genetic growth profiling, strain panel (AID 1159580)
# details: S. cerevisiae deletion strains, growth OD, locus YML016C, strain PPZ1, hits give low values
Out of some 5,500 compounds screened, about 2,000 (36%) were called active. Not shown: some 18% with an inconclusive outcome. Some of the results follow.
Listed below: normalized growth values for each entry.
// print number alone

Solved cases (5 shown):
1. CC[C@@]1(O)C(=O)OCc2c1cc1n(c2=O)Cc2cc3ccccc3nc2-1 | 0.998
2. CC[C@@]1(O)C(=O)OCc2c1cc1n(c2=O)Cc2cc3cc(O)ccc3nc2-1 | 1.02
3. COc1cc(C(=O)N2CCOCC2)cc(OC)c1OC | 1.01
4. C[C@@H]1CCC2[C@](C)(CO)[C@@H](O)CC[C@]2(C)[C@@]12CC[C@@](CO)(CCO)O2 (stereo partly specified) | 0.997
5. CC1(C)[C@@H]2CC[C@@]1(C)C(=O)C2 | 0.997

Would you kindly look at the next entry?
Exam item: Fill blank: measured normalized growth of the compound `C[C@]12CCC(=O)C=C1CCc1ccc(O)cc12` is ____.
Marked response: 1.01

---

# protocolNotes: chemical genetic growth profiling, strain panel (AID 1159580);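 note: tested at 20 µM; growth read once vehicle control cultures reached saturation at 30 °C; 1 = growth at the plate median or of vehicle wells; lower values mean less growth of the strain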
# details: S. cerevisiae deletion strains, growth OD, locus YFR003C, strain YPI1
Screen size: about 5,500 compounds; about 2,000 (36%) were called active. About 18% were inconclusive and are not listed. Cut-off read from the data, not from the text of the source: active = normalized growth mostly below about 0.91 (no sharp cut-off); inconclusive = no clear call, values can overlap the other calls; inactive = mostly above about 0.92. Some of the results follow.
Response enum: T for active, F for inactive

Take a look at these entries with their results.
1. O=S(=O)(Nc1ccccc1Sc1c(Cl)cncc1Cl)c1ccc(Cl)cc1 | F
2. CO/N=C1/CC(C)(C)Cc2c(-c3ccn(C(=O)Nc4cccc(Cl)c4)n3)sc(SC)c21 | F
3. CN1/C(=C/C=C/c2ccc3ccccc3[n+]2C)C=Cc2ccccc21 | T
4. Cc1ccc(OS(=O)(=O)c2c(Cl)sc(Cl)c2Br)c([N+](=O)[O-])n1 | F
5. N/C(=N/OC(=O)c1ccc([N+](=O)[O-])cc1)c1c(Cl)cccc1Cl | F
6. Cc1cc(Br)c(O)c(/C=N\NC(=S)NC(C)(C)C)c1 | F
7. COc1ccccc1N1CCN(C(=O)C(C)c2ccc(CC(C)C)cc2)CC1 (configuration not stated) | F
8. CN(C)/C=C1\CSc2ccc(Cl)cc2C1=O | F
9. O=C(OCc1ccccc1Br)c1cc([N+](=O)[O-])cc([N+](=O)[O-])c1 | F
10. N#Cc1nccnc1N1CCN(C(=O)Nc2cc(Cl)cc(Cl)c2)CC1 | F

Then this molecule:
Exam item: Called result for `FC(F)(F)Sc1ccc(OCc2n[nH]c(=S)n2-c2ccccc2)cc1`
Marked response: F

---

Listed below: normalized growth values for each entry.
# protocolNotes: chemical genetic growth profiling, strain panel (AID 1159580);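 note: tested at 20 µM; growth read once vehicle control cultures reached saturation at 30 °C; 1 = growth at the plate median or of vehicle wells; lower values mean less growth of the strain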
# details: S. cerevisiae deletion strains, growth OD, locus YHR030C, strain SLT2, hits give low values
The whole screen tested about 5,500 compounds, of which about 2,000 (36%) were called active. Another 18% or so got no clear call; they are omitted. The list shows a part of the results.
// print number alone

1) C[C@]12CC[C@H](O)C[C@H]1CCC1C2CC[C@]2(C)[C@@H](C3=CC(=O)OC3)[C@@H](O)C[C@]12O (stereo partly specified) | 1
2) NC(=NS(=O)(=O)c1cc(Cl)c(Oc2ccc([N+](=O)[O-])cc2Cl)c(Cl)c1)c1cccnc1 | 0.924
3) CCCCCCCCCCCCSc1ncn[nH]1 | 0.135
4) N/C(=N/OC(=O)c1ccc([N+](=O)[O-])cc1)c1c(Cl)cccc1Cl | 0.268
5) COC1C(O)C(C)OC(O[C@H]2CC[C@]3(C=O)C4C(CC[C@]3(O)C2)[C@@]2(O)CC[C@H](C3=CC(=O)OC3)[C@@]2(C)C[C@H]4O)C1O (stereo partly specified) | 1.07

Exam item: Fill blank: measured normalized growth of the compound `CCn1nc(C)cc1C(=O)O` is ____.
Marked response: 1.07

Exam item: `Cc1onc(-c2ccccc2)c1C(=O)On1c(-c2ccccc2)nc2ccccc2c1=O` , same question.
Marked response: 0.196

Exam item: CC(=O)OCC(=O)[C@@]1(O)CCC2C3C[C@H](C)C4=CC(=O)C=CC4(C)C3[C@@H](O)CC21C (stereo partly specified) , same question.
Marked response: 1.01

Exam item: `CC(C)(N)Cc1ccccc1` , same question.
Marked response: 1.02

Exam item: `FC(F)(F)Sc1ccc(OCc2n[nH]c(=S)n2-c2ccccc2)cc1` , same question.
Marked response: 0.814

---

# protocolNotes: chemical genetic growth profiling, strain panel (AID 1159580);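 note: tested at 20 µM; growth read once vehicle control cultures reached saturation at 30 °C; 1 = growth at the plate median or of vehicle wells; lower values mean less growth of the strain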
# details: S. cerevisiae deletion strains, growth OD, locus YHR030C, strain SLT2, hits give low values
The whole screen tested about 5,500 compounds, of which about 2,000 (36%) were called active. Inconclusive results (about 18%) are left out. This is one part of the list.
measuredMetric: normalized growth

Solved cases (4 shown):
1. C[C@H]1[C@H](C)CC[C@]2(C(=O)O)CC[C@]3(C)C(=CCC4[C@@]5(C)C[C@@H](O)[C@H](O)[C@@](C)(CO)C5CC[C@]43C)[C@H]12 (stereo partly drawn) | 0.949 (inactive)
2. Cc1ccc(S(=O)(=O)N2CCC(N)=N2)cc1 | 1.1 (inactive)
3. CCOC(=O)C1=C(O)C(=O)N(Cc2ccccc2)C1 | 1.01 (inactive)
4. O=C(O)c1oc(C(=O)O)c(OCc2ccccc2)c1OCc1ccccc1 | 0.963 (inactive)

Exam item: Fill blank: measured normalized growth of the compound `CCOC(=O)NC(=S)Nc1ccc(C(C)(C)C)cc1NC(=S)NC(=O)OCC` is ____.
Marked response: 1.08 (inactive)

Exam item: COC(=O)C[C@H]1C(C)(C)[C@@H](O)[C@@H]2CC3=C4CC(O)O[C@@H](c5ccoc5)[C@]4(C)CCC3[C@@]1(C)C2=O (stereo partly drawn) , same question.
Marked response: 1.01 (inactive)

Exam item: `CCOC(=O)c1cnc2n(c1=O)CCS2` , same question.
Marked response: 1.1 (inactive)

Exam item: O=c1c2cc(O)c(O)cc2oc2cc(O)c(C3O[C@H](CO)[C@H](O)[C@@H](O)[C@H]3O)c(O)c12 (stereo partly drawn) , same question.
Marked response: 0.973 (inactive)

Exam item: `N#Cc1ccc2[nH]cc(CCN(Cc3ccccc3)Cc3ccccc3)c2c1` , same question.
Marked response: 1.13 (inactive)

Exam item: `O=C(NNc1cc(C(F)(F)F)cc(C(F)(F)F)c1)c1cnc2n(c1=O)CCS2` , same question.
Marked response: 0.939 (inactive)

Exam item: `Cc1cc(-c2onc(C)c2C(=O)Sc2ccccc2)no1` , same question.
Marked response: 0.743 (active)

Exam item: O=c1c(-c2ccc(O)cc2)coc2c(C3O[C@H](CO)[C@@H](O)[C@H](O)[C@H]3O)c(O)ccc12 (stereo partly drawn) , same question.
Marked response: 0.957 (inactive)

Exam item: OCC(O)Cn1c2ccccc2c2ccccc21 (stereo not drawn) , same question.
Marked response: 1.07 (inactive)

Exam item: `O=C(O/N=C1/CCCc2[nH]c3ccccc3c21)C1CCCCC1` , same question.
Marked response: 0.971 (inactive)

Exam item: COCCCOc1ccnc(CS(=O)c2nc3ccccc3[nH]2)c1C (stereo not drawn) , same question.
Marked response: 0.94 (inactive)
